Just for reference, patent US9604996B2 is where these values come from.

MEASURED TARGET: UniProtKB P29275
ASSAY DETAILS: Cellular reporter gene (CRE-luciferase) A2b receptor antagonist assay in recombinant CHO-K1 cells stimulated with NECA
STATED CONDITIONS: recombinant CHO-K1 cell line, co-incubation with EC50 concentration of NECA, 3 hours, in some cases means, rounded to two significant digits
MEASUREMENT TYPE: IC50 (nM)
One number for each entry, in nM.

// IC50 lookup, key: CCCn1c(=O)c2c(C(F)F)c(C(=O)N3CCC(C)(O)CC3)sc2n(CCC(F)(F)F)c1=O [Example 142]
53

// IC50 lookup, key: Cc1c(C(=O)N2CCC(O)CC2)sc2c1c(=O)n(CCC=C(F)F)c(=O)n2CCC(F)(F)F [Example 106]
19

// IC50 lookup, key: COC(Cn1c(=O)c2c(C)c(C(=O)N3CCC(O)(CO)CC3)sc2n(CCC(F)(F)F)c1=O)C(F)(F)F (racemic) [Example 81]
170

// IC50 lookup, key: CCc1c(C(=O)N2CCC(O)CC2)sc2c1c(=O)n(CC)c(=O)n2CCC(F)(F)F [Example 87]
26

// IC50 lookup, key: CCn1c(=O)c2c(CF)c(C(=O)N3CCC(O)CC3)sc2n(CCC(F)(F)F)c1=O [Example 143]
82

Please state, for each entry, its recorded IC50.
1. CC(C)Cn1c(=O)c2c(C(F)F)c(C(=O)N3CCC(O)CC3)sc2n(CCC(F)(F)F)c1=O [Example 139]
2. Cc1c(C(=O)N2CCC(O)CC2)sc2c1c(=O)n(CCc1ccccc1Cl)c(=O)n2CCC(F)(F)F [Example 6]
3. CCn1c(=O)c2c(C)c(C(=O)N3CCC(O)C(O)C3)sc2n(CCC(F)(F)F)c1=O (single isomer, unassigned) [Example 118]
4. CCn1c(=O)c2c(C(F)F)c(C(=O)N3CCC(O)CC3)sc2n(CCC(F)(F)F)c1=O [Example 122]
5. COC(Cn1c(=O)c2c(C)c(C(=O)N3CCC(O)(CO)CC3)sc2n(CCC(F)(F)F)c1=O)C(F)(F)F (single isomer, unassigned) [Example 115]
6. Cc1c(C(=O)N2CCC(O)CC2)sc2c1c(=O)n(CCc1ccncc1)c(=O)n2CCC(F)(F)F [Example 54]
7. Cc1c(C(=O)N2CCNC(=O)C2)sc2c1c(=O)n(CCc1cccnc1)c(=O)n2CCC=C(F)F [Example 34]

1: 39; 2: 13; 3: 200; 4: 32; 5: 610; 6: 76; 7: 120

Please state, for each entry, its recorded IC50.
1. Cc1c(C(=O)N2CCNC(=O)C2)sc2c1c(=O)n(CCc1ccccc1Cl)c(=O)n2CCC=C(F)F [Example 32]
2. CCn1c(=O)c2c(C)c(C(=O)N3CCC(O)CC3)sc2n(CCOC)c1=O [Example 20]
3. CCn1c(=O)c2c(C(F)F)c(C(=O)N3CCC(O)(CO)CC3)sc2n(CCC(F)(F)F)c1=O [Example 126]

[110, 340, 84]

* * *

MEASURED TARGET: human adenosine A2b receptor (Homo sapiens, UniProt P29275)
Sequence (P29275 1-332): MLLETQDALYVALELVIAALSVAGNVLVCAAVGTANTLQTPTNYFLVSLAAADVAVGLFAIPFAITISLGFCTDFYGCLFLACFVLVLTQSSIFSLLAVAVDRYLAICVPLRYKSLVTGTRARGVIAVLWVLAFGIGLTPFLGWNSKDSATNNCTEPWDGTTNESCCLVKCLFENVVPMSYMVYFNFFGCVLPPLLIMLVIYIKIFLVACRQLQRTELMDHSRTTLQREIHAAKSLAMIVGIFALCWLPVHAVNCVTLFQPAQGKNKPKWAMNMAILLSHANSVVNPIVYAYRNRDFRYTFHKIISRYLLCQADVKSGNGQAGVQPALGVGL
ASSAY DETAILS: Cellular reporter gene (CRE-luciferase) A2b receptor antagonist assay in recombinant CHO-K1 cells stimulated with NECA
STATED CONDITIONS: recombinant CHO-K1 cell line, co-incubation with EC50 concentration of NECA, 3 hours, in some cases means, rounded to two significant digits
Friendly reminder: IC50 below 30 nM is 1, at or above is 0.

Use the examples below as a reference point.
I'd appreciate it if you could check whether CCc1c(C(=O)N2CCNC(=O)C2)sc2c1c(=O)n(CC)c(=O)n2CCC(F)(F)F has IC50 smaller than 30 nM.
0

I'd appreciate it if you could check whether CC(C)Cn1c(=O)c2c(C(F)F)c(C(=O)N3CCC(C)(O)CC3)sc2n(CCOC(F)(F)F)c1=O has IC50 smaller than 30 nM.
1

I'd appreciate it if you could check whether CCn1c(=O)c2c(C)c(C(=O)N3CCC(O)CC3)sc2n(CCSC(F)(F)F)c1=O has IC50 smaller than 30 nM.
0

I'd appreciate it if you could check whether CCc1c(C(=O)N2CCC(C)(O)CC2)sc2c1c(=O)n(CC)c(=O)n2CCC(F)(F)F has IC50 smaller than 30 nM.
1

I'd appreciate it if you could check whether Cc1c(C(=O)N2CCNC(=O)C2)sc2c1c(=O)n(CCc1ccccc1Cl)c(=O)n2CCC(F)(F)F has IC50 smaller than 30 nM.
1

I'd appreciate it if you could check whether Cc1c(C(=O)N2CCC(O)CC2)sc2c1c(=O)n(CC(O)c1ccccc1)c(=O)n2CCC(F)(F)F (single isomer, unassigned) [Example 100] has IC50 smaller than 30 nM.
1

I'd appreciate it if you could check whether Cc1c(C(=O)N2CCC(O)CC2)sc2c1c(=O)n(CCc1ccccc1Cl)c(=O)n2CCC=C(F)F has IC50 smaller than 30 nM.
0

Please look at the following molecule next.
I'd appreciate it if you could check whether Cc1c(C(=O)N2CCC(O)CC2)sc2c1c(=O)n(CC(C)C)c(=O)n2CCC(F)(F)F has IC50 smaller than 30 nM.
0
